# procedure_summary: NCI Yeast Anticancer Drug Screen. Data for the bub3 strain (AID 167)
# study_conditions: S. cerevisiae bub3 mutant strain, at 1.2 µM, active compounds read high
Compounds without any hit were thinned out: in the full panel of roughly 79,000, 15% have a hit.

{"compound": "COc1cc(/C=C2\\NC(=O)N(/C=C3\\C(=O)Oc4ccccc4C3=O)C2=O)ccc1O", "scale_unit": "%", "growth inhibition": -3}
{"compound": "S=c1sc2c(s1)SCCS2", "scale_unit": "%", "growth inhibition": 1}
{"compound": "Cc1cc(S(=O)(=O)Nc2nnc3cnc4ccccc4n23)c(S)cc1Cl", "scale_unit": "%", "growth inhibition": 4}
{"compound": "O=C1Nc2ccccc2/C1=C/c1ccccc1", "scale_unit": "%", "growth inhibition": -9}
{"compound": "CC1SC2(C(=O)Nc3ccc(Cl)cc32)N(c2ccc(Cl)cc2)C1=O (stereo unspecified)", "scale_unit": "%", "growth inhibition": 3}
{"compound": "Clc1ccc(NCNC2Nc3ccccc3N2)cc1Cl", "scale_unit": "%", "growth inhibition": 1}
{"compound": "Cc1ccc2c3ccc4c(c3n(C)c2c1)C(=O)C=CC4=O", "scale_unit": "%", "growth inhibition": -14}
{"compound": "CCCCC(CC)C(=O)[O][Sn]([CH2]CCC)([CH2]CCC)[O]C(=O)C(CC)CCCC (stereo unspecified)", "scale_unit": "%", "growth inhibition": 6}
{"compound": "CCN(CC)Cc1cc(Nc2c3ccccc3nc3c2[nH]c2ccccc23)cc(CN(CC)CC)c1O", "scale_unit": "%", "growth inhibition": -2}
{"compound": "CN(C)CCOC1(Cc2ccc(F)cc2)CCC(C(C)(C)C)CC1 (stereo unspecified)", "scale_unit": "%", "growth inhibition": -4}
{"compound": "Cc1ccc2nc(-c3cccc([N+](=O)[O-])c3)oc(=O)c2c1", "scale_unit": "%", "growth inhibition": -23}
